Recorded Rt (retention time) by entry
Procedure Summary: Reverse-phase HPLC retention time as estimate of lipophilicity
Format: physicochemical
Applied Conditions: indicator of lipophilicity
From the text: As mentioned before, albicidin 1 is a rather hydrophobic compound and improving its aqueous solubility is desirable. The lipophilicity of drug molecules is commonly characterized by the octanol/water partition coefficient (logP). An alternative approach relies on the correlation between lipophilicity and the retention time (Rt) on a reverse‐phase HPLC column.[31] This approach works well if structurally related compounds are compared as is the case for this SAR study. […]
Give just the numeric value; min need not be written.

Examples from the recorded data:
1. COc1c(NC(=O)c2ccc(NC(=O)c3ccc(NC(=O)[C@H](Cc4c[nH]nn4)NC(=O)c4ccc(NC(=O)c5ccc6nc(C)ccc6c5)cc4)cn3)c(OC)c2O)ccc(C(=O)O)c1O [compound 16] :: 6.94
2. COc1c(NC(=O)c2ccc(NC(=O)c3ccc(NC(=O)[C@H](Cc4c[nH]nn4)NC(=O)c4ccc(NC(=O)c5ccc6nccnc6c5)cc4)cn3)c(OC)c2O)ccc(C(=O)O)c1O [compound 15] :: 7.71
3. COc1c(NC(=O)c2ccc(NC(=O)c3ccc(NC(=O)[C@H](Cc4c[nH]nn4)NC(=O)c4ccc(NC(=O)c5ccc6nn[nH]c6c5)cc4)cn3)c(OC)c2O)ccc(C(=O)O)c1O [compound 24] :: 7.16
4. COc1c(NC(=O)c2ccc(NC(=O)c3ccc(NC(=O)[C@H](Cc4cn[nH]n4)NC(=O)c4ccc(NC(=O)/C(C)=C/c5ccc(O)cc5)cc4)cn3)c(OC)c2O)ccc(C(=O)O)c1O [compound 3, reference compound] :: 8.15
5. COc1c(NC(=O)c2ccc(NC(=O)c3ccc(NC(=O)[C@H](Cc4c[nH]nn4)NC(=O)c4ccc(NC(=O)c5ccc6nc[nH]c6c5)cc4)cn3)c(OC)c2O)ccc(C(=O)O)c1O [compound 23] :: 6.69

## Task Check the records and state Rt (retention time) for COc1c(NC(=O)c2ccc(NC(=O)c3ccc(NC(=O)[C@H](Cc4c[nH]nn4)NC(=O)c4ccc(NC(=O)c5cc6cc(O)ccc6[nH]5)cc4)cn3)c(OC)c2O)ccc(C(=O)O)c1O [compound 21]
## Result 7.50

## Task Give Rt (retention time) for the following molecule: COc1c(NC(=O)c2ccc(NC(=O)c3ccc(NC(=O)[C@H](Cc4c[nH]nn4)NC(=O)c4ccc(NC(=O)c5c[nH]c6ccccc6c5=O)cc4)cn3)c(OC)c2O)ccc(C(=O)O)c1O [compound 17]
## Result 7.98

## Task Tell me its Rt (retention time) given COc1c(NC(=O)c2ccc(NC(=O)c3ccc(NC(=O)[C@H](Cc4c[nH]nn4)NC(=O)c4ccc(NC(=O)c5ccc6cc(O)ccc6c5)cc4)cn3)c(OC)c2O)ccc(C(=O)O)c1O [compound 10] as the entry.
## Result 8.15

## Task Indicate its recorded Rt (retention time); the molecule in question is COc1c(NC(=O)c2ccc(NC(=O)c3ccc(NC(=O)[C@H](Cc4c[nH]nn4)NC(=O)c4ccc(NC(=O)c5cc6ccccc6cn5)cc4)cn3)c(OC)c2O)ccc(C(=O)O)c1O [compound 12]
## Result 8.74

## Task Please give measured Rt (retention time) of the following entry: COc1c(NC(=O)c2ccc(NC(=O)c3ccc(NC(=O)[C@H](Cc4c[nH]nn4)NC(=O)c4ccc(NC(=O)c5ccc(C#N)cc5)cc4)cn3)c(OC)c2O)ccc(C(=O)O)c1O [compound 4]
## Result 8.20

## Task Identify Rt (retention time) associated with the molecule COc1c(NC(=O)c2ccc(NC(=O)c3ccc(NC(=O)[C@H](Cc4c[nH]nn4)NC(=O)c4ccc(NC(=O)c5ccc(C(F)(F)F)cc5)cc4)cn3)c(OC)c2O)ccc(C(=O)O)c1O [compound 5]
## Result 8.99

Entry source: paper PMC11979685
